Molecular target: ALKBH6 (Homo sapiens, UniProt Q3KRA9)
Construct: His-tag; made in house
Sequence (Q3KRA9 whole entry): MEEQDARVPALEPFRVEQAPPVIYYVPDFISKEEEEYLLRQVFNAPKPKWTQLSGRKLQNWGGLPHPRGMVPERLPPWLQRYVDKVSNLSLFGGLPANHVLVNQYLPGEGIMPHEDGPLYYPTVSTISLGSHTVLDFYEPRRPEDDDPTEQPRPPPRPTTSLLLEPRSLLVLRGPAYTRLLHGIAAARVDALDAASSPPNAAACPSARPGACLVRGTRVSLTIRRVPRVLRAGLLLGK
Assay: Demethylation assay by HPLC analysis
Assay type: biochemical
Conditions: substrate 250 and 500 μM, 30 min

Smiles representation | Target | demethylation by ALKBH6 (HPLC)
C[n+]1cn([C@H]2C[C@H](O)[C@@H](COP(=O)(O)O)O2)c2nc(N)[nH]c(=O)c21 | ALKBH6 (Homo sapiens, UniProt Q3KRA9) | efficiently demethylate
Cn1c(=N)ccn([C@H]2C[C@H](O)[C@@H](COP(=O)(O)O)O2)c1=O | ALKBH6 (Homo sapiens, UniProt Q3KRA9) | efficiently demethylate
Cn1cnc2c(ncn2[C@H]2C[C@H](O)[C@@H](COP(=O)(O)O)O2)c1=N | ALKBH6 (Homo sapiens, UniProt Q3KRA9) | efficiently demethylate

Hey, just so you know, these numbers are from paper PMC12494543.
